target-desc: recombinant human TRPV1 (hTRPV1) (Homo sapiens, UniProt Q8NER1)
Sequence (Q8NER1 whole entry): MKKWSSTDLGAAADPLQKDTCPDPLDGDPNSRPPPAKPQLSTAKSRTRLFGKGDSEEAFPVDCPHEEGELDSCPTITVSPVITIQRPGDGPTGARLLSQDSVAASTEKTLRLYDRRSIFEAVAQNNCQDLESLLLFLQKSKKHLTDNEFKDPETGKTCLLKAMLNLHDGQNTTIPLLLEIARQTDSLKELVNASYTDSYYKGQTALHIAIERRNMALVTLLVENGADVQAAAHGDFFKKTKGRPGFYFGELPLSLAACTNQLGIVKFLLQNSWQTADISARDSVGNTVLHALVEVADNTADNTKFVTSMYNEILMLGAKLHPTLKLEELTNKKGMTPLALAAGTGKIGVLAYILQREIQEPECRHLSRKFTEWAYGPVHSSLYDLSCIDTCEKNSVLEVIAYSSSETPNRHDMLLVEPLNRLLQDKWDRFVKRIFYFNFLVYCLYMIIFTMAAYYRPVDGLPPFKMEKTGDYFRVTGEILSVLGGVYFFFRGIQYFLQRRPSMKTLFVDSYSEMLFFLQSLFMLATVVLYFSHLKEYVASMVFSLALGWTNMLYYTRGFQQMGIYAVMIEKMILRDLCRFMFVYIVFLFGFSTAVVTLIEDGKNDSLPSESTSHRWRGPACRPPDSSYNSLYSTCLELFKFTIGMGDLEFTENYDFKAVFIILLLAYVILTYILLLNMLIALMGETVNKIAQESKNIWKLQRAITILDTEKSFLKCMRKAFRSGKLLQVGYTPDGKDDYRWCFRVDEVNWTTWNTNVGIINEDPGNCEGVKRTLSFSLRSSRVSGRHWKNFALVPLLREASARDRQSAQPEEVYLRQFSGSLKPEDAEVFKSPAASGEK
assay-explanation: TRPV1 channel assay: intracellular Ca2+ elevation (Fluo-4) in HEK-293 cells overexpressing hTRPV1
condition-summary: read-out: IC50 (capsaicin 0.1 μM); HEK-293-hTRPV1; compound added 5 min before capsaicin 100 nM; capsaicin alone = 100%
metric: pIC50
Conceptually, pIC50 converts a concentration in mol/L into minus its log10.

Value of pIC50 reported for the compound COc1cc(CNC(=O)[C@]23CC[C@@H](C)[C@H](C)[C@H]2C2=CC[C@@H]4[C@@]5(C)CC[C@H](O)C(C)(C)[C@@H]5CC[C@@]4(C)[C@]2(C)CC3)ccc1O [3b, Ursoloyl vanillamide] is 5.12

The reported measurements were obtained from paper PMC8016363.
